system.name: human TAS2R7 (Homo sapiens, UniProt Q9NYW3, L71P)
Construct: RSS tag (first 45 amino acids of rat somatostatin receptor subtype 3, membrane export tag) (N)
Sequence (Q9NYW3 with tags, fused parts or gaps L71P): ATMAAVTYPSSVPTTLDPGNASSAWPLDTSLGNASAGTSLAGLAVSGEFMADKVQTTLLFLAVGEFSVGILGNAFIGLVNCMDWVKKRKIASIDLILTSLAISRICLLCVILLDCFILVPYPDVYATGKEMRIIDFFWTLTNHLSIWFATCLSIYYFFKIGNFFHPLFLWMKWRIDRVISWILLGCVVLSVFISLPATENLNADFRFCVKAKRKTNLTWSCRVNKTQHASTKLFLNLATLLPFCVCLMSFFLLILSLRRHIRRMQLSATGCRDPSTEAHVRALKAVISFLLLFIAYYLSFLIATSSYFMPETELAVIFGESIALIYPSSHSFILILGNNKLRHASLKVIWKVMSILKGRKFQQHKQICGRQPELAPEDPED
protocol.text: Fluo-4 calcium assay, HEK293T/Gα16-gustducin44 cell line stably expressing TAS2R7
condition.label: stable cell line; nonlinear regression of concentration-response; read-out: calculated EC50 value for TAS2R7
measure.name: EC50 (µM)

1) CC(C)[C@@H]1CC[C@@H](C)C[C@H]1O :: 310
